# Tested on: NL4-3 strain of HIV-1
# methodSummary: HIV-1 replication inhibition: cyto-protection of MT4 cells infected with NL4-3 virus (CellTiter-Glo viability assay)
# Assay type: cell-based
# conditionSet: Human immunodeficiency virus 1, NL43, 120 h, concentration leading to 50% of cyto-protection, 5 days incubation
pEC50: −log10 of the molar value.
# pEC50 >= 6 gives Y, anything below gives N

INSERT INTO measurements (compound, label) VALUES
  ('Cc1sc(-c2ccccn2)c(C2=CCC(C)(C)CC2)c1C(OC(C)(C)C)C(=O)O (stereo not drawn)', 'Y'),
  ('Cc1sc(-c2ccc(S(=O)(=O)N(C)C)cc2)c(C2=CCC(C)(C)CC2)c1C(OC(C)(C)C)C(=O)O (stereo not drawn)', 'N'),
  ('Cc1sc(-c2cnn(C)c2)c(-c2ccc3c(c2)CCCO3)c1C(OC(C)(C)C)C(=O)O (stereo not drawn)', 'N'),
  ('Cc1sc(-c2ccncc2)c(C2=CCC3(CC2)CC3)c1C(OC(C)(C)C)C(=O)O (stereo not drawn)', 'Y'),
  ('Cc1ccnc(-c2sc(C)c(C(OC(C)(C)C)C(=O)O)c2C2=CCC(C)(C)CC2)c1 (stereo not drawn)', 'N'),
  ('Cc1sc(-c2cncnc2)c(C2=CCC(C)(C)CC2)c1C(OC(C)(C)C)C(=O)O (stereo not drawn)', 'Y'),
  ('Cc1sc(-c2ccncc2)c(-c2ccc3c(c2)CCCO3)c1C(OC(C)(C)C)C(=O)O (stereo not drawn)', 'Y'),
  ('CCCn1cc(-c2sc(C)c(C(OC(C)(C)C)C(=O)O)c2C2=CCC(C)(C)CC2)ccc1=O (stereo not drawn)', 'Y'),
  ('Cc1cccnc1-c1sc(C)c(C(OC(C)(C)C)C(=O)O)c1C1=CCC(C)(C)CC1 (stereo not drawn)', 'Y');

====

# Tested on: NL4-3 strain of HIV-1
# methodSummary: HIV-1 replication inhibition: cyto-protection of MT4 cells infected with NL4-3 virus (CellTiter-Glo viability assay)
# Assay type: cell-based
# conditionSet: Human immunodeficiency virus 1, NL43, 120 h, concentration leading to 50% of cyto-protection, 5 days incubation
pEC50: −log10 of the molar value.
property: pEC50

INSERT INTO results (compound, resultnumber) VALUES
  ('Cc1sc(-c2ccc(=O)n(C)c2)c(C2=CCC(C)(C)CC2)c1C(OC(C)(C)C)C(=O)O (stereo not shown)', 7.15),
  ('CC(C)(C)OC(C(=O)O)c1c(C(F)(F)F)sc(-c2ccccc2)c1-c1ccc2c(c1)CCCO2 (stereo not shown)', 6.30),
  ('Cc1sc(-c2ccncc2)c(C2=CCC(C)CC2)c1C(OC(C)(C)C)C(=O)O (stereo not shown)', 6.85),
  ('Cc1sc(-c2ccccc2)c(-c2ccc3c(c2)CCCO3)c1C(OC(C)(C)C)C(=O)O (stereo not shown)', 6.59);

====

# Tested on: NL4-3 strain of HIV-1
# methodSummary: HIV-1 replication inhibition: cyto-protection of MT4 cells infected with NL4-3 virus (CellTiter-Glo viability assay)
# Assay type: cell-based
# conditionSet: Human immunodeficiency virus 1, NL43, 120 h, concentration leading to 50% of cyto-protection, 5 days incubation
pEC50: −log10 of the molar value.
pEC50 listing for selected molecules.
property: pEC50

INSERT INTO results (molecule, property, resultnumber) VALUES
  ('Cc1sc(-n2cccn2)c(C2=CCC(C)(C)CC2)c1C(OC(C)(C)C)C(=O)O (stereo not shown)', 'pEC50', 6.11),
  ('COc1cc(-c2sc(C)c(C(OC(C)(C)C)C(=O)O)c2-c2ccc3c(c2)CCCO3)ccn1 (stereo not shown)', 'pEC50', 5.82),
  ('CCCc1ccc(-c2sc(C)c(C(OC(C)(C)C)C(=O)O)c2C2=CCC(C)(C)CC2)nc1 (stereo not shown)', 'pEC50', 6.03),
  ('Cc1sc(C2=CCCCC2)c(C2=CCC(C)(C)CC2)c1C(OC(C)(C)C)C(=O)O (stereo not shown)', 'pEC50', 5.92),
  ('Cc1sc(C2=CCCC2)c(C2=CCC(C)(C)CC2)c1C(OC(C)(C)C)C(=O)O (stereo not shown)', 'pEC50', 6.17),
  ('Cc1sc(C2CC2)c(C2=CCC(C)(C)CC2)c1C(OC(C)(C)C)C(=O)O (stereo not shown)', 'pEC50', 5.96),
  ('Cc1sc(-c2cnn(C)c2)c(C2=CCC(C(C)C)CC2)c1C(OC(C)(C)C)C(=O)O (stereo not shown)', 'pEC50', 6.08);
